Recorded inhibition at 10 ppm values for a group of compounds are listed next.
Tested on: Alternaria solani
method-description: Mycelial growth test
Assay type: cell-based
condition-label: Alternaria solani, 72 h, AS, 10 ppm, read-out: Percent Fungus Growth Inhibition
Please give a number only; it is taken to be in %.

Query: GET /values?readout=inhibition at 10 ppm&item= O=C(Nc1ccccc1)Nc1ccc(Oc2nsnc(Cl)c2=O)cc1
Reply: 30

Query: Also need O=c1c(Cl)nsnc1Oc1ccc(Cl)cc1Cl , thanks.
Reply: 72

Query: Then O=c1c(Cl)nsnc1Oc1cccc(Cl)c1 ?
Reply: 59

Query: Could you do the same for CC(=O)c1cccc(Oc2nsnc(Cl)c2=O)c1 , please?
Reply: 92

Query: Please do the same for CNC(=O)Nc1ccc(Oc2nsnc(Cl)c2=O)cc1 as well.
Reply: 47

---

Test system: Alternaria solani
method-description: Spore germination test
Type: cell-based
condition-label: AS, 40 ppm, 48 hours
quantity-kind: Spore Germination Rating

Record excerpt, results attached:
N#CCc1ccc(Oc2nsnc(Cl)c2=O)cc1	0 (0-10)
CCOC(=O)c1ccc(Oc2nsnc(Cl)c2=O)cc1	4 (80-100)
O=c1c(Cl)nsnc1Oc1cccc(Cl)c1	0 (0-10)
CC(=O)c1cccc(Oc2nsnc(Cl)c2=O)c1	0 (0-10)
Cc1cc(Oc2nsnc(Cl)c2=O)ccc1Cl	4 (80-100)

Read the next record carefully.
Query: So what does the record say about Spore Germination Rating for O=c1c(Cl)nsnc1Oc1ccc(Cl)cc1 ?
Reply: 0 (0-10)

---

Tested on: Pyricularia oryzae
method-description: microbe, parasite or virus in culture
Format: cell-based
condition-label: Pyricularia oryzae, 72 h, read-out: Percent Fungus Growth Inhibition, PO, 40 ppm, 72 hours
# binarize inhibition at 40 ppm: threshold 60% inclusive, high side Satisfied, low side Not satisfied

O=C(O)Cc1ccccc1Oc1nsnc(Cl)c1=O	Not satisfied
Cc1cc(Cl)ccc1Oc1nsnc(Cl)c1=O	Not satisfied
O=c1c(Cl)nsnc1Oc1ccc(Br)cc1	Not satisfied
CCCCOc1ccc(Oc2nsnc(Cl)c2=O)cc1	Not satisfied
CC(C)(C)c1ccc(Oc2nsnc(Cl)c2=O)cc1	Not satisfied

Query: For this compound, is measured inhibition at 40 ppm 60% or higher? CC(=O)Nc1ccc(Oc2nsnc(Cl)c2=O)cc1
Reply: Satisfied

---

Tested on: Fusarium solani
method-description: Mycelial growth test
Assay type: cell-based
condition-label: Fusarium solani, 72 h, PS, 5 ppm, 72 hours; read-out: Percent Fungus Growth Inhibition
Respond with label 1 for inhibition at 5 ppm values of 30% and above, label 0 for values below.

Consider the worked cases shown below.
CS(=O)(=O)c1ccc(Oc2nsnc(Cl)c2=O)cc1	label 0
O=c1c(Cl)nsnc1Oc1ccccc1	label 1
Cc1cc(Oc2nsnc(Cl)c2=O)ccc1Cl	label 0
O=C(Nc1ccccc1)Oc1ccc(Oc2nsnc(Cl)c2=O)cc1	label 0
CCCCOc1ccc(Oc2nsnc(Cl)c2=O)cc1	label 0
Nc1ccc(Oc2nsnc(Cl)c2=O)cc1	label 0

Query: Hi team, for O=C(O)c1ccc(Oc2nsnc(Cl)c2=O)cc1 , is the recorded inhibition at 5 ppm at or above 30%?
Reply: label 0

Query: // same read-out, input: O=c1c(Cl)nsnc1Oc1ccc(Br)cc1
Reply: label 0

---

Test system: Botrytis cinerea
method-description: Spore germination test
Assay type: cell-based
condition-label: BC, 40 ppm, 48 hours
Description: The test chemical was dissolved or suspended in acetone in an amount such that 0.8 ml of the resulting suspension or solution, mixed with 40 ml water agar produced a water agar solution containing 40, 10, 2.5 and 1 ppm of test chemical. The resulting agar solution, at 50° C., was then divided equally between two sterile petri dishes, each having four separated quadrants, and allowed to solidify. […] Readings were then taken and the percentage of germinated spores calculated. […]
// reported Spore Germination Rating per item

Use the examples below as a reference point.
O=c1c(Cl)nsnc1Oc1c(Cl)cc(Cl)cc1Cl	0 (0-10)
O=c1c(Cl)nsnc1Oc1ccc(O)cc1	3 (60-80)
O=C(O)Cc1ccccc1Oc1nsnc(Cl)c1=O	2 (40-60)

Query: # lookup: Spore Germination Rating of CC(=O)c1ccc(Oc2nsnc(Cl)c2=O)cc1
Reply: 0 (0-10)

Query: What do we get for O=c1c(Cl)nsnc1Oc1cccc(C(F)(F)F)c1 ?
Reply: 0 (0-10)

Query: Follow-up entry: Cc1cc(Oc2nsnc(Cl)c2=O)cc(C)c1Br
Reply: 3 (60-80)
